- Assayed System: T1, human serum albumin (human, UniProt P02768 25-609)
- T1 construct: Antigen in the SPR assay
- Method Notes: SPR
pKd: −log10 of the molar value.
Reported pKd values follow for various binders
Observed Property: pKd

Binder	Reported Measurement
VHH antibody in which arginine in position 50 of SEQ ID NO: 1 was substituted (SEQ ID NO: 4) (VHH, Text says asparagine at IMGT 50; Expressed in E. coli; also called R50L mutant) VHH: QVQLVESGGGLVQAGDSLRLSCAASGRTFSGYAMGWFRQAPGKELEFVARINWSGTLTYYADSVKGRFTGSRDNAKNTVYLQMNSLKPEDTAVYYCAQRGDSGSNYDPSGYSYWGQGTQVTVSS	6.80
VHH antibody in which glycine in position 36, arginine in position 50, and serine in position 116 of SEQ ID NO: 1 were substituted (SEQ ID NO: 9) (VHH, Text says asparagine at IMGT 36; also called G36D/R50L/S116R mutant) VHH: QVQLVESGGGLVQAGDSLRLSCAASGRTFSDYAMGWFRQAPGKELEFVARINWSGTLTYYADSVKGRFTGSRDNAKNTVYLQMNSLKPEDTAVYYCAQRGDSGSNYDPSGYRYWGQGTQVTVSS	7.11
VHH antibody in which glycine in position 36 and serine in position 116 of SEQ ID NO: 1 were substituted (SEQ ID NO: 7) (VHH, Text says asparagine at IMGT 36; also called G36D/S116R mutant) VHH: QVQLVESGGGLVQAGDSLRLSCAASGRTFSDYAMGWFRQAPGKEREFVARINWSGTLTYYADSVKGRFTGSRDNAKNTVYLQMNSLKPEDTAVYYCAQRGDSGSNYDPSGYRYWGQGTQVTVSS	7.35
VHH antibody in which glycine in position 36, glycine in position 78, and serine in position 116 of SEQ ID NO: 1 were substituted (SEQ ID NO: 10) (VHH, Text says asparagine at IMGT 36; also called G36D/G78A/S116R mutant) VHH: QVQLVESGGGLVQAGDSLRLSCAASGRTFSDYAMGWFRQAPGKEREFVARINWSGTLTYYADSVKGRFTASRDNAKNTVYLQMNSLKPEDTAVYYCAQRGDSGSNYDPSGYRYWGQGTQVTVSS	6.44
VHH antibody in which serine in position 116 of SEQ ID NO: 1 was substituted with arginine (SEQ ID NO: 6) (VHH, Expressed in E. coli; also called S116R mutant) VHH: QVQLVESGGGLVQAGDSLRLSCAASGRTFSGYAMGWFRQAPGKEREFVARINWSGTLTYYADSVKGRFTGSRDNAKNTVYLQMNSLKPEDTAVYYCAQRGDSGSNYDPSGYRYWGQGTQVTVSS	7.45
VHH antibody in which glycine in position 36 of SEQ ID NO: 1 was substituted (SEQ ID NO: 3) (VHH, Text says asparagine at IMGT 36; Expressed in E. coli; also called G36D mutant) VHH: QVQLVESGGGLVQAGDSLRLSCAASGRTFSDYAMGWFRQAPGKEREFVARINWSGTLTYYADSVKGRFTGSRDNAKNTVYLQMNSLKPEDTAVYYCAQRGDSGSNYDPSGYSYWGQGTQVTVSS	7.21
VHH antibody in which glycine in position 36, arginine in position 50, glycine in position 78, and serine in position 116 of SEQ ID NO: 1 were substituted (SEQ … (VHH, Text says asparagine at IMGT 36; also called G36D/R50L/G78A/S116R mutant) VHH: QVQLVESGGGLVQAGDSLRLSCAASGRTFSDYAMGWFRQAPGKELEFVARINWSGTLTYYADSVKGRFTASRDNAKNTVYLQMNSLKPEDTAVYYCAQRGDSGSNYDPSGYRYWGQGTQVTVSS	6.42
VHH antibody of SEQ ID NO: 1 (VHH, Isolated from a phage library; also called WT VHH) VHH: QVQLVESGGGLVQAGDSLRLSCAASGRTFSGYAMGWFRQAPGKEREFVARINWSGTLTYYADSVKGRFTGSRDNAKNTVYLQMNSLKPEDTAVYYCAQRGDSGSNYDPSGYSYWGQGTQVTVSS	6.58
VHH antibody in which glycine in position 78 of SEQ ID NO: 1 was substituted with alanine (SEQ ID NO: 5) (VHH, Expressed in E. coli; also called G78A mutant) VHH: QVQLVESGGGLVQAGDSLRLSCAASGRTFSGYAMGWFRQAPGKEREFVARINWSGTLTYYADSVKGRFTASRDNAKNTVYLQMNSLKPEDTAVYYCAQRGDSGSNYDPSGYSYWGQGTQVTVSS	4.88
